Biological target: T1, di cyNKG2D ECD Fc avi (cynomolgus, biotinylated at the avi-tag)
T1 construct: Dimeric fusion of cynomolgus NKG2D ECD to the C-terminus of an avi-tagged human IgG1 Fc; also called recombinant cynomolgus NKG2D
T1 sequence (chain, as listed by the source limits assumed): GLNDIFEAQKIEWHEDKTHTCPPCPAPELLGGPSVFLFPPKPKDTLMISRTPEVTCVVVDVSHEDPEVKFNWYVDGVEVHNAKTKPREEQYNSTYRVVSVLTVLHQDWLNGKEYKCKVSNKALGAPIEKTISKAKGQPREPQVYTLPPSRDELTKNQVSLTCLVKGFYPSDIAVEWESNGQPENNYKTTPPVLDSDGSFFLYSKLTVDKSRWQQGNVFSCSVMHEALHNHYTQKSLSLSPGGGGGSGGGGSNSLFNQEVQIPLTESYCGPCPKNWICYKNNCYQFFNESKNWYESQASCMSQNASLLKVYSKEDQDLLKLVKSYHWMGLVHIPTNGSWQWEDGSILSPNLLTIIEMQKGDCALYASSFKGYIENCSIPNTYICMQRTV
Experiment: SPR Biacore; IgG captured by anti-Fab, antigen analyte
Lab note: anything with koff at or over 0.0006 s⁻¹ counts as rule met; the rest go in rule not met.

binder | label
anti-NKG2D antibody clone 320 (antibody, V domains shown, From transgenic rabbits; also called 320 IgG) VH: EVQLLESGGGLVQPGGSLRLSCATSGFTFSDYAMSWVRQAPGKGLEWVSYNSFSVGSTDYADSVKGRFTISRDNSKNTLYLQMNSLRAEDTAVYYCSKHSGNYYTGPFHYWGQGTLVTVSS VL: DIQLTQSPSFLSASVGDRVTITCRASQGISSYLAWYQQKPGKAPKLLIYAASSLESGVPSRFSGSGSGTDFTLTISSLQPEDFATYYCQQSYSTPITFGQGTRLEIK | rule met
anti-NKG2D antibody clone 001 (antibody, V domains shown, From transgenic rabbits) VH: QQLEQSGGGLVTPGGSLKLCCIGSGFDFNTYWMTWVRQAPGKGLEWIGCIHGGSSGSTYYASWVNGRFTLSRDIDQSTGCLQVNSLTAADTAMYYCARPGYRSWSKTFDLWGQGTMVTVSS VL: DIQMTQSPSSLSASVGDRVTITCRASQDISESLNWYQQKPGKAPKLLIYAASSLQSGVPSRFSGSGSGTDYTLTISSLQPEDFATYYCQQANSFPLTFGGGTKVEIK | rule not met
anti-NKG2D antibody clone 018 (antibody, V domains shown, From transgenic rabbits) VH: QQLEQSGGGLVTPGGSLKVCCKASGFDFTTYWMTWVRQAPEKGLEWIGCIHGGDSGATYYANWVNGRFTLSRDIDQSTGCLQLNSLTAADTAMYYCARPGYPSWSKTFDLWGQGTMVTVSS VL: DIQMTQSPSSLSASVGDRVTITCQASQDISNALNWYQQKPGKAPKLLIYAASTLQSGVPSRFSGSGSGTDFTLTISSLQPEDFATYYCQHSNSFPLTFGGGTKVEIK | rule met
anti-NKG2D antibody clone 395 (antibody, V domains shown, From transgenic rabbits; rabbit VH, human VL) VH: QEQLEQSGGGLVTPGGSLKLCCTASGFDFNTFWMTWVRQAPGKGLEWIGCIHGGSGSRDYASWVNGRFTLSRDIDQSTACLQVNSLTAADTAMYYCARPGYRSWSKTFDLWGQGTMVTVSS VL: DIQMTQSPSSLSASVGDRVTITCRASQDISGALNWYQQKPGKAPNLLIYAASSLQSGVPSRFSGSGSGTDYTLTISSLQPEDFATYYCQQANSFPLTFGGGTKVEIK | rule not met
anti-NKG2D antibody clone 013 (antibody, V domains shown, From transgenic rabbits) VH: EQSGGGAGGGLVKPGGSLELCCKASGFDFSIYWMSWVRQSPGKGLEWIGRIYGGSSDYTAYASWVNGRFTLSRDIDQSTGCLQLNSLTAADTAMYYCVRLNPSFSRSFDYWGQGTLVTVSS VL: DIQMTQSPSSVSASVGDRVTITCRASQGIFSWLVWYQQKPGKAPELLMYGASTLQSGVPSRFSGSGSGTDFTLTISSLQPEDFATYYCQQGYSTPYTFGQGTKVEIK | rule met
anti-NKG2D antibody clone 230 (antibody, V domains shown, From transgenic rabbits) VH: QQLEQSGGGLVKPGGSLELCCIASGFDFSTYWMTWVRQAPGKGLEWIGCIHGGGSGTTSYASWVNGRFTLSRDIDQSTGCLQLTSLTAADTAMYYCARPGYRSWSKTFDLWGQGTMVTVSS VL: DIQMTQSPSSLSASVGDRVTITCQANQDISNALNWYQQKPGKAPKLLIYAASSLQSGVPSRFSGSGSGTDFTLTISSLQPEDFAAYYCQQAASFPLTFGGGTKVEIK | rule not met
